system: NCI-H23; assay: relative viability (nuclei count vs DMSO), 5 days (fraction); higher = more cells survive; settings: first compound 1.265 µM
property_name: relative viability
Please reply with the number alone, leaving off any unit.

Reading of relative viability for Clc1ccc(Nc2nnc(Cc3ccncc3)c3ccccc23)cc1 [Vatalanib] + COc1cccc2cc(-c3nc([C@H]4CC[C@H](C(=O)O)CC4)n4ncnc(N)c34)[nH]c12 [OSI-027] (partner 0.5 µM) with NCI-H23: 0.517

Value sought: relative viability, system NCI-H23, item Clc1ccc(Nc2nnc(Cc3ccncc3)c3ccccc23)cc1 [Vatalanib] + Cc1nc(Nc2ncc(C(=O)Nc3c(C)cccc3Cl)s2)cc(N2CCN(CCO)CC2)n1 [Dasatinib] (partner 0.075 µM) . Result: 0.772

Considering Clc1ccc(Nc2nnc(Cc3ccncc3)c3ccccc23)cc1 [Vatalanib] + C[C@]1(O)C[C@@H](c2nc(-c3ccc4ccc(-c5ccccc5)nc4c3)c3c(N)nccn32)C1 [Linsitinib] (partner 1 µM) , its relative viability with NCI-H23 was recorded as 0.495

NCI-H23 assay, compound Clc1ccc(Nc2nnc(Cc3ccncc3)c3ccccc23)cc1 [Vatalanib] + CC(=O)Nc1cccc(-n2c(=O)n(C3CC3)c(=O)c3c(Nc4ccc(I)cc4F)n(C)c(=O)c(C)c32)c1 [Trametinib] (partner 0.02 µM) , recorded relative viability = 0.363

Entry COc1cc(N2CCC(C(N)=O)CC2)ccc1Nc1nc(N)c(Cl)c(Nc2ccccc2S(=O)(=O)C(C)C)n1 [HG-5-88-01] + C[C@]1(O)C[C@@H](c2nc(-c3ccc4ccc(-c5ccccc5)nc4c3)c3c(N)nccn32)C1 [Linsitinib] (partner 1 µM) , NCI-H23 data, relative viability value: 0.73

The reported relative viability value, NCI-H23, for Clc1ccc(Nc2nnc(Cc3ccncc3)c3ccccc23)cc1 [Vatalanib] + O=C(c1cc(Cc2n[nH]c(=O)c3ccccc23)ccc1F)N1CCN(C(=O)C2CC2)CC1 [Olaparib] (partner 8 µM) reads 0.305

Item Clc1ccc(Nc2nnc(Cc3ccncc3)c3ccccc23)cc1 [Vatalanib] + NC(=O)Nc1cc(-c2cccc(F)c2)sc1C(=O)N[C@H]1CCCNC1 [AZD7762] (partner 0.2 µM) ; assay system NCI-H23; relative viability reported as 0.259

Reported NCI-H23 relative viability for item Clc1ccc(Nc2nnc(Cc3ccncc3)c3ccccc23)cc1 [Vatalanib] + CC1(C)CCC(c2ccc(Cl)cc2)=C(CN2CCN(c3ccc(C(=O)NS(=O)(=O)c4ccc(N[C@H](CCN5CCOCC5)CSc5ccccc5)c(S(=O)(=O)C(F)(F)F)c4)cc3)CC2)C1 [Navitoclax] (partner 0.5 µM) was 0.745

Clc1ccc(Nc2nnc(Cc3ccncc3)c3ccccc23)cc1 [Vatalanib] + Nc1ncn([C@H]2C[C@H](O)[C@@H](CO)O2)c(=O)n1 [Decitabine] (partner 2 µM) on NCI-H23 gives relative viability = 0.291

Field relative viability (NCI-H23), entry COc1cc(N2CCC(C(N)=O)CC2)ccc1Nc1nc(N)c(Cl)c(Nc2ccccc2S(=O)(=O)C(C)C)n1 [HG-5-88-01] + C[C@@H](Oc1cc(-c2cnn(C3CCNCC3)c2)cnc1N)c1c(Cl)ccc(F)c1Cl [Crizotinib] (partner 1 µM) : 0.471

Record COc1cc(N2CCC(C(N)=O)CC2)ccc1Nc1nc(N)c(Cl)c(Nc2ccccc2S(=O)(=O)C(C)C)n1 [HG-5-88-01] + COc1cc2c(Oc3ccc(NC(=O)C4(C(=O)Nc5ccc(F)cc5)CC4)cc3F)ccnc2cc1OCCCN1CCOCC1 [Foretinib] (partner 0.25 µM) ; system NCI-H23; relative viability = 0.729

====

Hi there, I'd appreciate the recorded relative viability for every entry that follows.
system: NCI-H1395; assay: relative viability (nuclei count vs DMSO), 5 days (fraction); higher = more cells survive; details: first compound 0.08 µM
Returns: the value as a bare number; no unit string appended.

Case CCCCCCCCCCCC1=C(O)C(=O)C=C(O)C1=O [Embelin] + CC(=O)c1c(C)c2cnc(Nc3ccc(N4CCNCC4)cn3)nc2n(C2CCCC2)c1=O [Palbociclib] (partner 0.5 µM) , NCI-H1395, relative viability recorded as 0.599

Record CCCCCCCCCCCC1=C(O)C(=O)C=C(O)C1=O [Embelin] + COc1cccc2cc(-c3nc([C@H]4CC[C@H](C(=O)O)CC4)n4ncnc(N)c34)[nH]c12 [OSI-027] (partner 0.5 µM) has NCI-H1395 relative viability equal to 0.657

Test item CCCCCCCCCCCC1=C(O)C(=O)C=C(O)C1=O [Embelin] + C[C@]1(O)C[C@@H](c2nc(-c3ccc4ccc(-c5ccccc5)nc4c3)c3c(N)nccn32)C1 [Linsitinib] (partner 1 µM) ; NCI-H1395; reported relative viability was 1.22

====

Assign relative viability to each entry below.
test system: A-427; experiment: relative viability (nuclei count vs DMSO), 5 days (fraction); higher = more cells survive; conditions: first compound 0.01 µM
// return a plain number; no unit text

So for CC(C)Oc1cc(Nc2nc(N[C@@H](C)c3ccc(F)cn3)ncc2Cl)n[nH]1 [AZ23] + N=C(N)NC(=N)NCCc1ccccc1 [Phenformin] (partner 250 µM) , the logged relative viability turned out to be 0.301

The recorded relative viability for entry CC(C)Oc1cc(Nc2nc(N[C@@H](C)c3ccc(F)cn3)ncc2Cl)n[nH]1 [AZ23] + Nc1ncn([C@H]2C[C@H](O)[C@@H](CO)O2)c(=O)n1 [Decitabine] (partner 2 µM) equals 0.508

Entry CC(C)Oc1cc(Nc2nc(N[C@@H](C)c3ccc(F)cn3)ncc2Cl)n[nH]1 [AZ23] + CC(C)C[C@H](NC(=O)[C@H](Cc1ccccc1)NC(=O)c1cnccn1)B(O)O [Bortezomib] (partner 0.002 µM) , relative viability reported as 1.07

The compound identified as CC(C)Oc1cc(Nc2nc(N[C@@H](C)c3ccc(F)cn3)ncc2Cl)n[nH]1 [AZ23] + CC1(C)CCC(c2ccc(Cl)cc2)=C(CN2CCN(c3ccc(C(=O)NS(=O)(=O)c4ccc(N[C@H](CCN5CCOCC5)CSc5ccccc5)c(S(=O)(=O)C(F)(F)F)c4)cc3)CC2)C1 [Navitoclax] (partner 0.5 µM) registered its relative viability at 0.941

relative viability reading for CC(C)Oc1cc(Nc2nc(N[C@@H](C)c3ccc(F)cn3)ncc2Cl)n[nH]1 [AZ23] + CC(=O)Nc1cccc(-n2c(=O)n(C3CC3)c(=O)c3c(Nc4ccc(I)cc4F)n(C)c(=O)c(C)c32)c1 [Trametinib] (partner 0.02 µM) : 0.569

Record summary for CC(C)Oc1cc(Nc2nc(N[C@@H](C)c3ccc(F)cn3)ncc2Cl)n[nH]1 [AZ23] + COc1cccc2cc(-c3nc([C@H]4CC[C@H](C(=O)O)CC4)n4ncnc(N)c34)[nH]c12 [OSI-027] (partner 0.5 µM) : reported relative viability = 0.37

Lab note: measured relative viability of CC(C)Oc1cc(Nc2nc(N[C@@H](C)c3ccc(F)cn3)ncc2Cl)n[nH]1 [AZ23] + Nc1nc2[nH]cc(CCc3ccc(C(=O)N[C@@H](CCC(=O)O)C(=O)O)cc3)c2c(=O)[nH]1 [Pemetrexed] (partner 0.2 µM) was 0.797

// CC(C)Oc1cc(Nc2nc(N[C@@H](C)c3ccc(F)cn3)ncc2Cl)n[nH]1 [AZ23] + CS(=O)(=O)N1CCN(Cc2cc3nc(-c4cccc5[nH]ncc45)nc(N4CCOCC4)c3s2)CC1 [Pictilisib] (partner 1 µM) : relative viability value = 0.819

In plain terms, CC(C)Oc1cc(Nc2nc(N[C@@H](C)c3ccc(F)cn3)ncc2Cl)n[nH]1 [AZ23] + C[C@@H](Oc1cc(-c2cnn(C3CCNCC3)c2)cnc1N)c1c(Cl)ccc(F)c1Cl [Crizotinib] (partner 1 µM) has a documented relative viability of 0.942

Entry CC(C)Oc1cc(Nc2nc(N[C@@H](C)c3ccc(F)cn3)ncc2Cl)n[nH]1 [AZ23] + O=C(CCCCCCC(=O)Nc1ccccc1)NO [Vorinostat] (partner 1 µM) , relative viability reported as 0.699

====

tested on: PC-14; experiment: relative viability (nuclei count vs DMSO), 5 days (fraction); higher = more cells survive; conditions: first compound 0.03162 µM
What relative viability was measured for each of the following?
Please give only the number in your answer, with no unit.

Measured relative viability, CC(C)Oc1cc(Nc2nc(N[C@@H](C)c3ccc(F)cn3)ncc2Cl)n[nH]1 [AZ23] + O=C(CCCCCCC(=O)Nc1ccccc1)NO [Vorinostat] (partner 1 µM) : 0.874

Reported relative viability ( CC(C)Oc1cc(Nc2nc(N[C@@H](C)c3ccc(F)cn3)ncc2Cl)n[nH]1 [AZ23] + C[C@]1(O)C[C@@H](c2nc(-c3ccc4ccc(-c5ccccc5)nc4c3)c3c(N)nccn32)C1 [Linsitinib] (partner 1 µM) ) = 1.16

relative viability measured on CC(C)Oc1cc(Nc2nc(N[C@@H](C)c3ccc(F)cn3)ncc2Cl)n[nH]1 [AZ23] + CS(=O)(=O)N1CCN(Cc2cc3nc(-c4cccc5[nH]ncc45)nc(N4CCOCC4)c3s2)CC1 [Pictilisib] (partner 1 µM) = 0.689
